IC50 data for PI3Kα (Homo sapiens, UniProt P42336) follow.

{"Molecule": "C[C@H](O)C(=O)N1CCN(c2nc3c(N4CCOCC4)nc(-c4cnc(N)nc4)nc3n2CC(F)(F)F)C[C@@H]1C", "Target of assay": "PI3Kα (Homo sapiens, UniProt P42336)", "IC50": "< 10 nM"}
{"Molecule": "Cc1nc(N)ncc1-c1nc(N2CCOCC2)c2nc(N3CCC(NS(C)(=O)=O)C3)n(CC3CC3)c2n1 (stereo not shown)", "Target of assay": "PI3Kα (Homo sapiens, UniProt P42336)", "IC50": "10 to 20 nM"}
{"Molecule": "CS(=O)(=O)C1CCN(c2nc3c(N4CCOCC4)nc(-c4cnc(N)nc4)nc3n2CC(F)(F)F)CC1", "Target of assay": "PI3Kα (Homo sapiens, UniProt P42336)", "IC50": "< 10 nM"}
{"Molecule": "CNc1ncc(-c2nc(N3CCOCC3)c3nc(N4C[C@@H](C)N[C@@H](C)C4)n(CC4CC4)c3n2)cn1", "Target of assay": "PI3Kα (Homo sapiens, UniProt P42336)", "IC50": "20 to 50 nM"}
{"Molecule": "C[C@@H]1CN(c2nc3c(N4CCOCC4)nc(-c4cnc(N)nc4)nc3n2CC(F)(F)F)CCN1", "Target of assay": "PI3Kα (Homo sapiens, UniProt P42336)", "IC50": "< 10 nM"}
{"Molecule": "Cc1nc(N)ncc1-c1nc(N2CCOCC2)c2nc(N3CCC(N(C)S(C)(=O)=O)C3)n(CC3CC3)c2n1 (stereo not shown)", "Target of assay": "PI3Kα (Homo sapiens, UniProt P42336)", "IC50": "10 to 20 nM"}

IN: Looking for the measured IC50 of CNc1ncc(-c2nc(N3CCOCC3)c3nc(N4CCN(S(C)(=O)=O)[C@@H](C)C4)n(CC(F)(F)F)c3n2)cn1 , can you help?
OUT: < 10 nM

----------
pIC50 data for human mTOR (His-tagged mTOR (1362C)) (Homo sapiens) follow.
pIC50: −log10 of the molar value.

{"Compound": "Cc1nc(N)ncc1-c1nc(N2CCOCC2)c2nc(N3CC[C@H](NS(C)(=O)=O)C3)n(CC3CC3)c2n1", "Target of assay": "human mTOR (His-tagged mTOR (1362C)) (Homo sapiens)", "pIC50": "≤ 6.30"}
{"Compound": "CC(=O)N1[C@H](C)CN(c2nc3c(N4CCOCC4)nc(-c4cnc(N)nc4)nc3n2CC2CC2)C[C@@H]1C", "Target of assay": "human mTOR (His-tagged mTOR (1362C)) (Homo sapiens)", "pIC50": "> 8.00"}
{"Compound": "C[C@H]1CN(c2nc3c(N4CCOCC4)nc(-c4cnc(N)nc4)nc3n2CC(F)(F)F)CCN1C=O", "Target of assay": "human mTOR (His-tagged mTOR (1362C)) (Homo sapiens)", "pIC50": "> 8.00"}
{"Compound": "Cc1nc(N)ncc1-c1nc(N2CCOCC2)c2nc(N3CCC(C(N)=O)CC3)n(CC3CC3)c2n1", "Target of assay": "human mTOR (His-tagged mTOR (1362C)) (Homo sapiens)", "pIC50": "6.30 to 7.00"}
{"Compound": "CC(C)Cn1c(N2CCN(C(=O)N(C)C)CC2)nc2c(N3CCOCC3)nc(-c3cnc(N)nc3)nc21", "Target of assay": "human mTOR (His-tagged mTOR (1362C)) (Homo sapiens)", "pIC50": "7.00 to 7.52"}

Next up:
IN: Looking for the measured pIC50 of C[C@@H]1CN(c2nc3c(N4CCOCC4)nc(-c4cnc(N)nc4)nc3n2CC2CCOC2)C[C@H](C)N1 (stereo partly drawn) , can you help?
OUT: 6.30 to 7.00
